Each record here notes measured HepSE_liver fatty.
Tested on: Hepatotoxicity

Below, 2 molecules whose answers are already recorded.
| MOLECULE | OBSERVED_MEASUREMENT |
| --- | --- |
| C[C@H]1O[C@H](O[C@H]2[C@H](O)[C@@H](O)[C@@H](O[C@H]3[C@H](O)[C@@H](O)C(O)O[C@@H]3CO)O[C@@H]2CO)[C@H](O)[C@@H](O)[C@@H]1N[C@H]1C=C(CO)[C@@H](O)[C@H](O)[C@H]1O (stereo partly drawn) [ACARBOSE] | 0 |
| CCN1CCN(C(=O)N[C@@H](C(=O)N[C@@H]2C(=O)N3C(C(=O)O)=C(CSc4nnnn4C)CS[C@H]23)c2ccc(O)cc2)C(=O)C1=O [CEFOPERAZONE] | 0 |

Lab note: next molecule to report on.
Query the reported HepSE_liver fatty for Hepatotoxicity; item: Nc1nc2c(c(=O)[nH]1)N(C=O)C(CNc1ccc(C(=O)N[C@@H](CCC(=O)O)C(=O)O)cc1)CN2 (stereo partly drawn) [LEUCOVORIN] 0

###

System: Hepatotoxicity
READOUT: HepSE_Combined Scores
Enter a number only.

Examples with their reported HepSE_Combined Scores follow.
| COMPOUND | TARGET_OF_ASSAY | HepSE_Combined Scores |
| --- | --- | --- |
| CN(C)CCCN1c2ccccc2Sc2ccc(Cl)cc21 | Hepatotoxicity | 3 |
| CCc1ccc(CCOc2ccc(CC3SC(=O)NC3=O)cc2)nc1 (centres undefined) | Hepatotoxicity | 3 |
| c1ccc(CC2=NCCN2)cc1 | Hepatotoxicity | 1 |
| OCCN1C[C@H](O)[C@@H](O)[C@H](O)[C@H]1CO | Hepatotoxicity | 0 |
| NC(=O)N1c2ccccc2CC(=O)c2ccccc21 [OXCARBAZEPINE] | Hepatotoxicity | 2 |
| C[C@H]1C[C@H]2[C@@H]3CCC4=CC(=O)C=C[C@]4(C)[C@@]3(Cl)[C@@H](O)C[C@]2(C)[C@@]1(O)C(=O)CO | Hepatotoxicity | 0 |
| CCOC(=O)c1cncn1[C@H](C)c1ccccc1 [ETOMIDATE] | Hepatotoxicity | 0 |
| COc1ccc(CCN(C)CCCC(C#N)(c2ccc(OC)c(OC)c2)C(C)C)cc1OC (centres undefined) | Hepatotoxicity | 2 |

Under Hepatotoxicity: HepSE_Combined Scores value of COc1cc(C)c(/C=C/C(C)=C/C=C/C(C)=C/C(=O)O)c(C)c1C ? 3

###

Tested on: Hepatotoxicity
READOUT: HepSE_hepatitis
Reply with the value as a number alone.

Please review the following examples before continuing.
| MOLECULE | OBSERVED_MEASUREMENT |
| --- | --- |
| CC1(C)O[C@@H]2[C@@H](CO[C@@]3(COS(N)(=O)=O)OC(C)(C)O[C@@H]23)O1 [TOPIRAMATE] | 1 |
| Cc1nnc2n1-c1ccc(Cl)cc1C(c1ccccc1Cl)=NC2 | 0 |

Given CCC(=O)[C@@]1(C)[C@H](C)C[C@H]2[C@@H]3CCC4=CC(=O)C=C[C@]4(C)[C@H]3[C@@H](O)C[C@@]21C [RIMEXOLONE] , state its recorded HepSE_hepatitis. 0

Value lookup for HepSE_hepatitis; key = C[C@@H](O)[C@H]1C(=O)N2C(C(=O)O)=C(S[C@@H]3CN[C@H](C(=O)N(C)C)C3)[C@H](C)[C@H]12 1

Consider the molecule shown here: COc1cc([C@@H]2c3cc4c(cc3[C@@H](O[C@@H]3O[C@@H]5CO[C@@H](c6cccs6)O[C@H]5[C@H](O)[C@H]3O)[C@H]3COC(=O)[C@H]23)OCO4)cc(OC)c1O [TENIPOSIDE] What is its recorded HepSE_hepatitis? 0

Given CNC(=C[N+](=O)[O-])NCCSCc1ccc(CN(C)C)o1 , state its recorded HepSE_hepatitis. 1

Which HepSE_hepatitis value is on record for CC(C)(C)NC[C@H](O)COc1nsnc1N1CCOCC1 ? 0

###

Some compounds, each annotated with its measured HepSE_jaundice.
System: Hepatotoxicity

| COMPOUND | READOUT | OBSERVED_MEASUREMENT |
| --- | --- | --- |
| O=C(NCC1CCCCN1)c1cc(OCC(F)(F)F)ccc1OCC(F)(F)F (centres undefined) [FLECAINIDE] | HepSE_jaundice | 1 |
| CN1C(C(=O)Nc2ccccn2)=C(O)c2ccccc2S1(=O)=O | HepSE_jaundice | 1 |
| COc1ccccc1OCC(O)COC(N)=O (centres undefined) | HepSE_jaundice | 1 |
| CCCc1nc(C)c2c(=O)[nH]c(-c3cc(S(=O)(=O)N4CCN(CC)CC4)ccc3OCC)nn12 | HepSE_jaundice | 0 |
| CN1CCN(C2=Nc3ccccc3Oc3ccc(Cl)cc32)CC1 | HepSE_jaundice | 1 |

// next item, HepSE_jaundice requested
Provide the documented HepSE_jaundice with Hepatotoxicity as the system for O=C1C(CC[S+]([O-])c2ccccc2)C(=O)N(c2ccccc2)N1c1ccccc1 (centres undefined) 0

###

System: Hepatotoxicity
Collected HepSE_hepatic failure values appear next to each entry.
Lab note: jot down the number only; don't add units.

The following compounds have reported results that may help.
| COMPOUND | HepSE_hepatic failure |
| --- | --- |
| CCN(CC)C(=O)/C(C#N)=C/c1cc(O)c(O)c([N+](=O)[O-])c1 | 1 |
| CCCN1CCCC[C@H]1C(=O)Nc1c(C)cccc1C | 0 |
| CC(=O)S[C@@H]1CC2=CC(=O)CC[C@]2(C)[C@H]2CC[C@@]3(C)[C@@H](CC[C@@]34CCC(=O)O4)[C@H]12 | 0 |

From here, focus on the item given below.
Quick check: HepSE_hepatic failure on Hepatotoxicity, item Cn1nnc2c(C(N)=O)ncn2c1=O [TEMOZOLOMIDE] ? 0

###

Measured HepSE_cholecystitis on Hepatotoxicity follows.
# respond with the number and nothing more

// worked examples, HepSE_cholecystitis included
| MOLECULE | HepSE_cholecystitis |
| --- | --- |
| O=C(CCCCC(=O)Nc1c(I)cc(I)c(C(=O)O)c1I)Nc1c(I)cc(I)c(C(=O)O)c1I [IODIPAMIDE] | 0 |
| O=C1[C@H](CC[C@H](O)c2ccc(F)cc2)[C@@H](c2ccc(O)cc2)N1c1ccc(F)cc1 | 1 |
| CC[C@H](C)[C@@H]1NC(=O)[C@H](Cc2ccc(O)cc2)NC(=O)[C@@H](N)CSSC[C@@H](C(=O)N2CCC[C@H]2C(=O)N[C@@H](CC(C)C)C(=O)NCC(N)=O)NC(=O)[C@H](CC(N)=O)NC(=O)[C@H](CCC(N)=O)NC1=O | 0 |
| C[C@H]1C[C@H]2[C@@H]3CCC4=CC(=O)C=C[C@]4(C)[C@@]3(F)[C@@H](O)C[C@]2(C)[C@@]1(O)C(=O)CCl | 0 |
| CC1=C(C/C=C(\C)CCC[C@H](C)CCC[C@H](C)CCCC(C)C)C(=O)c2ccccc2C1=O | 0 |

Okay, next one:
// lookup HepSE_cholecystitis | system=Hepatotoxicity | key= CNC(=C[N+](=O)[O-])NCCSCc1ccc(CN(C)C)o1 0

###

Notes on HepSE_jaundice obtained with Hepatotoxicity.

Example entries begin here.
| COMPOUND | HepSE_jaundice |
| --- | --- |
| CCOC(=O)C1=C(COCCN)NC(C)=C(C(=O)OC)C1c1ccccc1Cl (configuration not stated) | 1 |
| COCCc1ccc(OCC(O)CNC(C)C)cc1 (configuration not stated) | 1 |
| Cc1nnc2n1-c1ccc(Cl)cc1C(c1ccccc1Cl)=NC2 | 1 |
| COCc1c(C(C)C)nc(C(C)C)c(/C=C/[C@@H](O)C[C@@H](O)CC(=O)O)c1-c1ccc(F)cc1 | 1 |

Find the measured HepSE_jaundice: item CCOC(=O)[C@H](CCc1ccccc1)N[C@@H](C)C(=O)N1[C@H](C(=O)O)C[C@@H]2CCC[C@@H]21 , target or system Hepatotoxicity. 1

Hepatotoxicity / HepSE_jaundice / C[C@]12CCC(=O)C=C1CC[C@H]1[C@@H]3CC[C@](O)(C(=O)CO)[C@@]3(C)C[C@H](O)[C@@]12F : value? 0

// map OC(CCN1CCCCC1)(c1ccccc1)C1CC2C=CC1C2 (configuration not stated) to recorded HepSE_jaundice (system: Hepatotoxicity) 0

Lab note: need HepSE_jaundice for CCCCC(C)(O)C/C=C/[C@H]1[C@H](O)CC(=O)[C@@H]1CCCCCCC(=O)OC (some centres not stated) on Hepatotoxicity, anyone have it? 0

Identify the measured HepSE_jaundice of C[C@@H]1C[C@H]2[C@@H]3CCC4=CC(=O)C=C[C@]4(C)[C@@]3(F)[C@@H](O)C[C@]2(C)[C@H]1C(=O)CO for Hepatotoxicity. 0

Hepatotoxicity / HepSE_jaundice / O=C1CC2(CCCC2)CC(=O)N1CCCCN1CCN(c2ncccn2)CC1 : value? 0

Short answer please: HepSE_jaundice, Hepatotoxicity, entry O=C(O)CCC(=O)O.O=C(O[C@H]1CN2CCC1CC2)N1CCc2ccccc2[C@@H]1c1ccccc1 [SOLIFENACIN SUCCINATE] 0

Value wanted: HepSE_jaundice (Hepatotoxicity) of entry CCCCN1C[C@H](O)[C@@H](O)[C@H](O)[C@H]1CO 0

Param readout = HepSE_jaundice; param system = Hepatotoxicity; param query = CCCCCCCCCCC[C@@H](C[C@@H]1OC(=O)[C@H]1CCCCCC)OC(=O)[C@H](CC(C)C)NC=O ; response: value 0

Report HepSE_jaundice for COc1c(C)c2c(c(O)c1C/C=C(\C)CCC(=O)O)C(=O)OC2 tested on Hepatotoxicity. 1

Reference for the values: ChEMBL document CHEMBL1909294
